Tested on: HCT-116
Assay: NCI tumour cell line growth inhibition, 48 h
The source made the active and inactive calls. Rule as the data show it: active = GI50 up to about 1.1 µM and inactive = higher.
Labels: T for active, F for inactive

> print(dat)
                                    molecule   system  classification
 1      CN(C)c1ccc(C(=NN)c2ccc(N(C)C)cc2)cc1  HCT-116               T
 2  CSc1c(C#N)c(N)nc2c(/N=N\c3ccc(Br)cc3)c(N)nn12  HCT-116               F
 3                       O=c1ccc2ccc(O)cc2o1  HCT-116               F
 4  CCCOc1ccc(/C(Cl)=C(\C=O)c2ccc(OC)c(OC)c2)cc1OCCC  HCT-116               F
 5             CN(N=O)C(=O)Nc1ccc(C(=O)O)cc1  HCT-116               F
 6               Nc1ncnc2c1sc(=S)n2-c1ccccc1  HCT-116               F
 7  CC1(C)N=C(N)N=C(N)N1c1ccc(OCC(=O)Nc2cccc(S(=O)(=O)F)c2)c(Cl)c1  HCT-116               F
 8           Cc1cn(CC2(CO)CCC2)c(=O)[nH]c1=O  HCT-116               F
 9        O=C(c1ccc([N+](=O)[O-])cc1)N1CCCC1  HCT-116               F
10                        Brc1ccc2ns[s+]c2c1  HCT-116               F
11  O=C(O)C(C1NCCS1)N1C(=O)c2ccccc2C1=O (centres undefined)  HCT-116               F
12  Nn1c(S)nnc1-c1ccccc1Nc1ccccc1-c1nnc(S)n1N  HCT-116               F
13  CN/N=C(\C(=O)Nc1ccc(C(F)(F)F)cc1[N+](=O)[O-])C(c1cnc2ccc([N+](=O)[O-])cc2n1)[N+](=O)[O-] (centres undefined)  HCT-116               F
14  O=CN1CCN(CC(O)CN2CCCCC2)CC1 (centres undefined)  HCT-116               F
15      CCOC(=O)/C=C/c1c(C)[nH]c(=O)[nH]c1=O  HCT-116               F
16   CSc1c(C#N)c(=O)n(N)c2c1c(C)nn2-c1ccccc1  HCT-116               F
17       O=c1/c(=C/c2ccccc2O)sc2nc3ccccc3n12  HCT-116               F
18  COC(=O)C(C)(C)OCc1ccc(C2NC(=O)N(c3cccc(Cl)c3)C(=O)N2c2cccc(Cl)c2)cc1 (centres undefined)  HCT-116               F
19  Cn1c2ccccc2c2c3c(c4c5ccccc5n(C)c4c21)C(=O)N(c1ccccc1)C3=O  HCT-116               F
20  CCN(CC)CCn1ccc(=O)c2cc3c(=O)ccn(CCN(CC)CC)c3c(C)c21  HCT-116               F
21  Oc1ccc2c3c1OC1C(=NN=C4CCC5(O)C6Cc7ccc(O)c8c7C5(CCN6CC5CC5)C4O8)CCC4(O)C(C2)N(CC2CC2)CCC314 (centres undefined)  HCT-116               F
22             COc1cc(/C=N/N=C2NCCCCN2)ccc1O  HCT-116               F
23  CC(=O)OCCC1c2ccccc2-n2nc(-c3ccccc3)c(O)c21 (centres undefined)  HCT-116               F
24  CC(=O)C1=C(C)N2C(=NC3=C(CCc4ccccc43)C2c2ccc(Cl)cc2)S1 (centres undefined)  HCT-116               F
25  CC1=CC(C)C(C)N(CCNC(=O)Nc2ccccc2)c2ccccc21 (centres undefined)  HCT-116               F
26                 COc1ccc(/N=C/N(C)C)c(C)c1  HCT-116               F
27  O=[N+]([O-])c1cc(/N=N/c2c(O)ccc3cc(S(=O)(=O)O)ccc23)c(O)c([N+](=O)[O-])c1  HCT-116               F
28  CC(=O)NC1C(OCC(=O)NCCNc2ccc([N+](=O)[O-])c3[nH]c4ccccc4c(=O)c23)C(O)C(CO)OC1(C)OCc1ccccc1 (centres undefined)  HCT-116               F
29     COc1ccccc1-c1cc(=O)c2ccc(OC)c(OC)c2o1  HCT-116               F

====

GI50 by entry:
Tested on: HOP-62
Test: NCI tumour cell line growth inhibition, 48 h
Calls of active or inactive are those of the source. No stated cut-off is given here; in the data, active = GI50 up to about 1.1 µM and inactive = higher.

MOLECULE	GI50
Cc1ccc2nc(NC(=O)C(=O)C(C(=O)c3ccc4ccccc4c3)C3OC(=O)c4ccccc43)sc2c1 (centres undefined)	11 µM (inactive)
COC(=O)C1CCc2nnc(-c3ccccc3)n21 (centres undefined)	> 100 µM (inactive)
CC(C)(C)C1CCC2c3c([nH]c4ccccc34)C3C(=O)N(c4cccc([N+](=O)[O-])c4)C(=O)C3C2C1 (centres undefined)	29.6 µM (inactive)
CC[C@H](CCCC[C@H]1CC[C@@H]2CC(=O)C[C@H]12)OC	> 100 µM (inactive)
COC(C)(C)[C@H](O)C(O)CC(C)[C@@H]1CCC23CC12CCC1[C@@]2(C)CCC(OC(C)=O)C(C)(C)C2CC(OC2OC(COC(C)=O)C(O)C(O)C2O)[C@]13C (some centres undefined)	8.49 µM (inactive)
OC1(c2ccccc2)CCN(Cc2c[nH]c3ccccc23)CC1	> 100 µM (inactive)
CCNC1=C(NC(=O)CC)C(=O)c2ccccc2C1=O	> 100 µM (inactive)
O=[N+]([O-])c1ccc2c(c1)c(OCc1ccccc1)nn2Cc1ccccc1	36.3 µM (inactive)
C1=Cc2ccccc2C1.C=C(C)c1ccccc1.[N-]=[N+]=Nc1ccccc1	> 100 µM (inactive)

====

Test system: SN12C
Assay: NCI tumour cell line growth inhibition, 48 h
Calls of active or inactive are those of the source. No stated cut-off is given here; in the data, active = GI50 up to about 1.1 µM and inactive = higher.
Outcome codes: true = active, false = inactive

COMPOUND	CLASSIFICATION
Cc1n[nH]/c(=N\S(=O)(=O)c2ccc(/N=N/c3c(O)c(C(=O)O)cc4ccccc34)cc2)s1	false
CCC(=O)C(C)C(=O)C(=O)C(=O)OC (centres undefined)	false
COc1ccc(N[S+]([O-])c2ccc(OC)cc2)cc1 (centres undefined)	false
O=c1ccc(-c2ccc(-n3ccnc3)cc2)nn1CCO	false
O=C1CNc2cc(N3CCCCC3)ccc2N1	false
Cc1ccc(S(=O)(=O)c2ccsc2NC(=O)c2ccccc2)cc1	false
C/C(=C\c1csc(C)n1)[C@@H]1C[C@@H]2O[C@@H]2CCC[C@H](C)[C@H](O)[C@@H](C)C(=O)C(C)(C)[C@@H](O)CC(=O)O1.C/C(=C\c1csc(C)n1)[C@@H]1C[C@@H]2O[C@]2(C)CCC[C@H](C)[C@H](O)[C@@H](C)C(=O)C(C)(C)[C@@H](O)CC(=O)O1	true
CCOC(=O)C(C)c1nc2cc(C(F)(F)F)ccc2[nH]c1=O (centres undefined)	false
O=C1/C(=C/c2ccccc2)CN(C(=O)CCN2CCOCC2)C/C1=C\c1ccccc1	false

====

Measured GI50 accompanies every entry in the list below.
System: LOX IMVI
Assay: NCI tumour cell line growth inhibition, 48 h
Active and inactive are the calls of the source. No stated cut-off is given here; in the data, active = GI50 up to about 1.1 µM and inactive = higher.
PARAMETER_MEASURED: GI50

> print(dat)
                                   compound  parameter.measured  recorded.measurement
1  Cc1cn(C2CC(O)C(CO)C2C)c(=O)[nH]c1=O (stereo unspecified)                GI50   > 100 µM (inactive)
2  CC(=O)Nc1cc2cc(NS(=O)(=O)c3cc(C(F)(F)F)cc(C(F)(F)F)c3)ccc2oc1=O                GI50    98.6 µM (inactive)
3  CCOc1ccc(C(CN2CCOCC2)C(C)=O)cc1OC (stereo unspecified)                GI50      17 µM (inactive)
4          Oc1cc(-c2ccco2)nc2cc3c(cc12)OCO3                GI50    50.6 µM (inactive)
5  CC(=O)NC1C(OCC(=O)NCCNc2ccc([N+](=O)[O-])c3[nH]c4ccccc4c(=O)c23)C(O)C(CO)OC1(C)OCc1ccccc1 (stereo unspecified)                GI50   > 100 µM (inactive)
6  O=C(Cl)C1=C(c2ccccc2)C1c1ccccc1 (stereo unspecified)                GI50   > 100 µM (inactive)

// data source = ChEMBL document CHEMBL1201862
